# targetOrSystem: Recombinant ROCK2 (amino acids 5-554) (Homo sapiens)
# Construct: ROCK2 (amino acids 5-554); by word order, ROCK2 from SignalChem
# assayMethodText: ROCK inhibition assay, LANCE Ultra TR-FRET kinase assay (ROCK2)
# testContext: 4 μM ATP, 50 nM ULight-CREBtide substrate
measureName: IC50

compound	measureName	endpointResult
CNC(=O)c1cccc(Cn2ccc3cc(-c4conc4C)cnc3c2=O)c1 [Compound 243]	IC50	100 to 500 nM
CNC(=O)c1cccc(Cn2cc(C(C)O)c3cc(-c4c[nH]nc4N)ccc3c2=O)c1 (centres unmarked) [Compound 544]	IC50	< 10 nM
CC(C)NC(=O)c1cccc(Cn2cnc3cc(-c4cn[nH]c4C(F)(F)F)ccc3c2=O)c1 [Compound 369]	IC50	< 10 nM
Cc1nocc1-c1ccc2c(=O)n(Cc3cccc(C(=O)NCC4CCN(C)CC4)c3)ccc2c1 [Compound 78]	IC50	< 10 nM
CC(=O)Nc1cc(F)cc(Cn2ccc3cc(-c4ccoc4C)ccc3c2=O)c1 [Compound 333]	IC50	100 to 500 nM
Cn1ccc(NC(=O)c2cc(F)cc(Cn3ccc4cc(-c5ccnn5C)ccc4c3=O)c2)n1 [Compound 179]	IC50	< 10 nM
COc1cccc([C@@H](CO)N2CNc3cc(-c4ccnn4C)ccc3C2=O)c1 [Compound 531]	IC50	100 to 500 nM

Next item in the queue.
Reported IC50 for C[C@H](c1cccc(C(=O)NCC2CCOCC2)c1)n1cnc2cc(-c3cn[nH]c3C(F)F)ccc2c1=O [Compound 462] : what is it?
< 10 nM

====

Below, each entry is listed with its recorded IC50.
# targetOrSystem: Recombinant ROCK1 (amino acids 1-477) (Homo sapiens)
# Construct: Recombinant ROCK1 (amino acids 1-477); by word order, ROCK1 from Carna Biosciences
# assayMethodText: ROCK inhibition assay, LANCE Ultra TR-FRET kinase assay (ROCK1)
# testContext: 1 μM ATP, 50 nM ULight-CREBtide substrate

Below are worked cases with known answers.
molecule	IC50
C[C@H](c1cccc(C(=O)NCC2CCOCC2)c1)n1cnc2cc(-c3cn[nH]c3C(F)(F)F)ccc2c1=O [Compound 451]	11 to 100 nM
Cc1nocc1-c1ccc2c(=O)n(Cc3cc(F)cc(C(=O)N[C@H]4CC[C@H](O)CC4)c3)ccc2c1 [Compound 139]	101 to 500 nM
O=C1c2ccc(-c3cn[nH]c3Cl)cc2NCN1[C@H](CO)c1cccc(Cl)c1 [Compound 525]	> 501 nM
Cc1nocc1-c1ccc2c(=O)n(Cc3cc(F)cc(C(=O)NCC4CCNCC4)c3)ccc2c1 [Compound 150]	11 to 100 nM

// IC50 lookup, key: Nc1cc(-c2ccc3c(=O)n(Cc4cccc(C(=O)NC5COC5)c4)ccc3c2)ccn1 [Compound 195]
101 to 500 nM

What value of IC50 has been reported for the following molecule? O=C(NC1CCOCC1)c1cccc(Cn2ccc3cc(N4CCOCC4)ccc3c2=O)c1 [Compound 212]
> 501 nM

Quick check: IC50 of CNC(=O)c1cc(F)cc(Cn2ccc3cc(-c4ccoc4C)ncc3c2=O)c1 [Compound 247] ?
> 501 nM

Can you look up the measured IC50 of O=C(NCC1CCN(C2CC2)CC1)c1cccc(Cn2ccc3cc(N4CCOCC4)ccc3c2=O)c1 [Compound 225] for me?
101 to 500 nM

====

# targetOrSystem: Recombinant ROCK2 (amino acids 5-554) (Homo sapiens, UniProt O75116)
# Construct: ROCK2 (amino acids 5-554); by word order, ROCK2 from SignalChem
# Sequence (O75116 5-554): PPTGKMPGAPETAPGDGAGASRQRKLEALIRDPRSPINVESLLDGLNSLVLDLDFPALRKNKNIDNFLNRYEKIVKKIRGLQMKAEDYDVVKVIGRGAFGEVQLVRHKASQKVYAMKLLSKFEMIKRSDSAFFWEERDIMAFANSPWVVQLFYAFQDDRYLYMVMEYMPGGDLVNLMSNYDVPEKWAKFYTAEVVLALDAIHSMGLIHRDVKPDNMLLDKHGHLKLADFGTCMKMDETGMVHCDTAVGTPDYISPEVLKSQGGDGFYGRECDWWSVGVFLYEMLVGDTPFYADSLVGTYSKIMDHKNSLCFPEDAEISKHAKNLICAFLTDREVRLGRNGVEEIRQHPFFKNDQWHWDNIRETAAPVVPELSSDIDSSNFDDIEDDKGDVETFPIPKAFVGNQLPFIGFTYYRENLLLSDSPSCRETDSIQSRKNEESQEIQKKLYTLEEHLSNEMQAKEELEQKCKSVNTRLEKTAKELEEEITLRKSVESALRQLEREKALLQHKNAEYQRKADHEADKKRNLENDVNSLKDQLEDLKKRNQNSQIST
# assayMethodText: ROCK inhibition assay, LANCE Ultra TR-FRET kinase assay (ROCK2)
# testContext: 4 μM ATP, 50 nM ULight-CREBtide substrate
measureName: IC50

compound	IC50
Cc1nocc1-c1ccc2c(=O)n(Cc3cccc(C(=O)NCc4ccc(F)nc4)c3)ccc2c1	< 10 nM

Report IC50 for O=c1c2ccc(-c3c[nH]nc3C(F)(F)F)cc2ccn1Cc1cccc(O)c1 please.
10 to 100 nM

Quick check: IC50 of CNC(=O)c1cccc(Cn2ccc3cc(-c4conc4C)ncc3c2=O)c1 ?
10 to 100 nM

Query (compound): CNC(=O)c1cccc([C@@H](C)n2cnc3cc(-c4cn[nH]c4F)ncc3c2=O)c1 ; field requested: IC50
< 10 nM

So what's the measured IC50 for this one? Cc1nocc1-c1ccc2c(=O)n(Cc3cc(F)cc(C(=O)Nc4ccn(C)n4)c3)ccc2c1
< 10 nM

Param item = O=C(NC1COC1)c1cc(F)cc(Cn2ccc3cc(N4CCOCC4)ccc3c2=O)c1 ; retrieve measured IC50.
100 to 500 nM

====

# targetOrSystem: Recombinant ROCK2 (amino acids 5-554) (Homo sapiens)
# Construct: ROCK2 (amino acids 5-554); by word order, ROCK2 from SignalChem
# assayMethodText: ROCK inhibition assay, LANCE Ultra TR-FRET kinase assay (ROCK2)
# testContext: 4 μM ATP, 50 nM ULight-CREBtide substrate
measureName: IC50

Consider the following illustrative entries.
molecule	targetOrSystem	IC50
Nc1cc(-c2ccc3c(=O)n(Cc4cccc(C(=O)NCCc5ccccc5)c4)ccc3c2)ccn1	Recombinant ROCK2 (amino acids 5-554) (Homo sapiens)	10 to 100 nM
Cc1n[nH]cc1-c1ccc2c(=O)n(Cc3cccc(C(=O)NCC(F)(F)F)c3)ccc2c1	Recombinant ROCK2 (amino acids 5-554) (Homo sapiens)	10 to 100 nM
CC(=O)Nc1cccc(Cn2ccc3cc(-c4c[nH]nc4C)ccc3c2=O)c1	Recombinant ROCK2 (amino acids 5-554) (Homo sapiens)	10 to 100 nM

Form field: IC50 recorded for CNC(=O)c1cc(Cn2cnc3cc(-c4cn[nH]c4C(F)(F)F)ccc3c2=O)ccc1F with Recombinant ROCK2 (amino acids 5-554) (Homo sapiens) (enter value)
10 to 100 nM

====

# targetOrSystem: Recombinant ROCK1 (amino acids 1-477) (Homo sapiens)
# Construct: Recombinant ROCK1 (amino acids 1-477); by word order, ROCK1 from Carna Biosciences
# assayMethodText: ROCK inhibition assay, LANCE Ultra TR-FRET kinase assay (ROCK1)
# testContext: 1 μM ATP, 50 nM ULight-CREBtide substrate
pIC50: −log10 of the molar value.
measureName: pIC50

// below: answered compounds
chemSmiles	endpointResult
C[C@H](c1cccc(C(=O)NCCN(C)C)c1)n1cnc2cc(-c3cn[nH]c3C(F)F)ccc2c1=O	> 8.00
CNC(=O)c1cc(Cl)cc(Cn2ccc3cc(-c4ccnn4C)ccc3c2=O)c1	6.30 to 7.00
CNC(=O)c1cc(F)cc(Cn2ccc3cc(-c4ccnn4C)ncc3c2=O)c1	6.30 to 7.00

Now, please, on to the next compound.
pIC50 for O=C(NCc1ccc(F)nc1)c1cccc(Cn2ccc3cc(-c4c[nH]nc4C(F)(F)F)ccc3c2=O)c1 ?
7.00 to 7.96

====

# targetOrSystem: Recombinant ROCK2 (amino acids 5-554) (Homo sapiens)
# Construct: ROCK2 (amino acids 5-554); by word order, ROCK2 from SignalChem
# assayMethodText: ROCK inhibition assay, LANCE Ultra TR-FRET kinase assay (ROCK2)
# Type: biochemical
# testContext: 4 μM ATP, 50 nM ULight-CREBtide substrate
measureName: IC50

Guide cases for IC50, answers given:
compound	IC50
Cc1nocc1-c1ccc2c(=O)n(Cc3cccc(C(=O)Nc4nc5c(s4)CCN(C(C)C)C5)c3)ccc2c1	< 10 nM
Cn1ccc(NC(=O)c2cc(F)cc(Cn3ccc4cc(-c5cn[nH]c5C(F)(F)F)ccc4c3=O)c2)n1	< 10 nM
CNC(=O)c1cccc(Cn2cnc3cc(-c4cn[nH]c4)ccc3c2=O)c1	< 10 nM
CN1CCC(CNC(=O)c2cccc(Cn3ccc4cc(-c5c[nH]nc5Cl)ccc4c3=O)c2)CC1	< 10 nM
O=C(NCC1CCNCC1)c1cccc(Cn2cnc3cc(-c4cn[nH]c4C(F)(F)F)ccc3c2=O)c1	< 10 nM

# lookup: IC50 of COc1cccc(Cn2cnc3cc(-c4c[nH]nc4C)ccc3c2=O)c1
10 to 100 nM

Quick one: IC50 for CN(C)Cc1ccccc1Cn1ccc2cc(-c3ccnc(N)c3)ccc2c1=O ?
< 10 nM

# input compound: COc1cccc(C(CO)n2cnc3cc(-c4cn[nH]c4Cl)ccc3c2=O)c1 (stereo not shown) ; wanted: its IC50
10 to 100 nM

Quick one: IC50 of Nc1cc(-c2ccc3c(=O)n(Cc4cccc(C(=O)Nc5ccc6c(c5)CNCC6)c4)ccc3c2)ccn1 ?
< 10 nM

May I ask what IC50 has been recorded for O=C(NCCc1cccc(F)n1)c1cccc(Cn2ccc3cc(-c4c[nH]nc4C(F)(F)F)ccc3c2=O)c1 ?
< 10 nM

====

# targetOrSystem: Recombinant ROCK1 (amino acids 1-477) (Homo sapiens, UniProt Q13464)
# Construct: Recombinant ROCK1 (amino acids 1-477); by word order, ROCK1 from Carna Biosciences
# Sequence (Q13464 1-477): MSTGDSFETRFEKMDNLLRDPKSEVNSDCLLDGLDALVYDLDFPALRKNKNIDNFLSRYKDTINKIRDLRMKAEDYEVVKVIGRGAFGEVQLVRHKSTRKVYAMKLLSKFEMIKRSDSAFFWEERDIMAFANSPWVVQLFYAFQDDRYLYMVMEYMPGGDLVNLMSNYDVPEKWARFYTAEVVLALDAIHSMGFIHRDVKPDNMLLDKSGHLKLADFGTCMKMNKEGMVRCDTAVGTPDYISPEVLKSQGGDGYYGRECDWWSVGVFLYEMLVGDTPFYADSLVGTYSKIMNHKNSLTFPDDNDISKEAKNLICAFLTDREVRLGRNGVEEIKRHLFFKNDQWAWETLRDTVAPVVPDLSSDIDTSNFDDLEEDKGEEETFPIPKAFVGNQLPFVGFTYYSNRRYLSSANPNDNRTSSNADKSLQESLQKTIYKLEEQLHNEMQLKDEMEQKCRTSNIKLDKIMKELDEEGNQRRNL
# assayMethodText: ROCK inhibition assay, LANCE Ultra TR-FRET kinase assay (ROCK1)
# testContext: 1 μM ATP, 50 nM ULight-CREBtide substrate
Overview of recorded IC50 for various molecules

# annotated cases, reported IC50 shown
molecule	endpointResult
[2H]C([2H])([2H])NC(=O)c1cccc(Cn2ccc3cc(-c4cn[nH]c4C(F)F)ncc3c2=O)c1 [Compound 238]	0.011 to 0.1 µM
CNC(=O)c1cc(F)cc(Cn2cnc3cc(-c4cn[nH]c4C(F)(F)F)ccc3c2=O)c1 [Compound 386]	0.011 to 0.1 µM
O=C(NCCc1ccccn1)c1cccc(Cn2ccc3cc(-c4cn[nH]c4)ccc3c2=O)c1 [Compound 27]	0.011 to 0.1 µM
CNC(=O)c1cccc(Cn2cnc3cc(-c4cn[nH]c4)ccc3c2=O)c1 [Compound 366]	0.011 to 0.1 µM
C[C@H](c1cccc(C(=O)NCC2CCN(C)CC2)c1)n1cnc2cc(-c3cn[nH]c3Cl)ccc2c1=O [Compound 465]	< 0.01 µM

Consider the record given below.
Dear colleague, I am looking for the recorded IC50 of the following molecule: COc1cccc(C(CO)n2cnc3cc(-c4cn[nH]c4C)ccc3c2=O)c1 (stereo not drawn) [Compound 489]
0.011 to 0.1 µM

Values from patent US12064426B2
